# EXPERIMENT_DESCRIPTION: Half life in C57BL/6J mouse at 10 mg/kg, po
# Assay type: ADME, organism-based
# CONDITIONS_USED: in vivo

- MOLECULE: "CCCn1c(=O)c2[nH]c(-c3cnn(CC#Cc4cccc(OC(F)(F)F)c4)c3)nc2n(CCC)c1=O"
  half-life: "5 h"
- MOLECULE: "CCCn1c(=O)c2[nH]c(-c3cnn(CC#Cc4cccc(C(=O)O)c4)c3)nc2n(CCC)c1=O"
  half-life: "1.8 h"
- MOLECULE: "CCCn1c(=O)c2[nH]c(-c3cnn(CC#Cc4cccc(OC(F)(F)F)c4)c3)nc2n(CC)c1=O"
  half-life: "6.1 h"
